// provenance: ChEMBL document CHEMBL2424515

Hi there, I'd appreciate the recorded log10 of Drug uptake for every entry that follows.
# Experimental System: Solute carrier family 22 member 2 (Homo sapiens, UniProt O15244)
# Sequence (O15244 whole entry): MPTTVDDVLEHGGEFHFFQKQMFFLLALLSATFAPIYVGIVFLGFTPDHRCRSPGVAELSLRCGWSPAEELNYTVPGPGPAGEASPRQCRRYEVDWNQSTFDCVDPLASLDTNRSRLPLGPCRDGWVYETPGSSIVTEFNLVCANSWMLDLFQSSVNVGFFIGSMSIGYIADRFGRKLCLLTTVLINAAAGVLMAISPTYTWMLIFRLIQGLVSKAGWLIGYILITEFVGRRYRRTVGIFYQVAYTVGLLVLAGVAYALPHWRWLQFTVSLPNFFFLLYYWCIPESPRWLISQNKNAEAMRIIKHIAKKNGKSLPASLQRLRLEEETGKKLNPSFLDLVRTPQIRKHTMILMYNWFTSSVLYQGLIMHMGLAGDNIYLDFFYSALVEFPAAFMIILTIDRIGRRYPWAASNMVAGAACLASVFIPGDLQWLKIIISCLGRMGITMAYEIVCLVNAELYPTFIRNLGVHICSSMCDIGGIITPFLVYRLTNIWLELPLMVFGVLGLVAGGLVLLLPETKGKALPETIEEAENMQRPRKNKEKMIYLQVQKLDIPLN
# Measurement Notes: Cellular uptake in human HEK293 cells assessed as human OCT2-mediated drug transport at 2.5 uM after 4 mins by LC-MS/MS analysis
# Format: ADME, cell-based
# Condition Notes: hek293, 4 min
All values: base-10 log of Drug uptake in pmol/mg.

Recall and state the measured log10 of Drug uptake for CN(C)C(=N)N=C(N)N .
2.04

Recall and state the measured log10 of Drug uptake for NC(=O)Nc1sc(-c2ccc(OC3CCNC3)cc2)cc1C(N)=O (racemic) .
0.93

Recall and state the measured log10 of Drug uptake for N=C(N)NC(=O)c1nc(Cl)c(N)nc1N [AMILORIDE] .
3.22

Recall and state the measured log10 of Drug uptake for NCCOc1ccccc1-c1nc(C(N)=O)c(NC(N)=O)s1 .
1.60

Recall and state the measured log10 of Drug uptake for C[N+]1(C)CCC(Oc2ccccc2-c2cc(C(N)=O)c(NC(N)=O)s2)C1 (racemic) .
1.66

Recall and state the measured log10 of Drug uptake for NC(=O)Nc1sc(-c2ccccc2O[C@@H]2CCNC2)cc1C(N)=O .
0.82

Recall and state the measured log10 of Drug uptake for NC(=O)Nc1sc(-c2ccccc2O[C@H]2CCNC2)cc1C(N)=O .
1.57

Recall and state the measured log10 of Drug uptake for CNC(=C[N+](=O)[O-])NCCSCc1ccc(CN(C)C)o1 .
1.34

Recall and state the measured log10 of Drug uptake for CN/C(=N/CCSCc1nc[nH]c1C)NC#N .
2.43

Recall and state the measured log10 of Drug uptake for CNS(=O)(=O)Cc1ccc2[nH]cc(CCN(C)C)c2c1 .
1.97

Recall and state the measured log10 of Drug uptake for [H]/N=C(/N)N/C(=N/[H])NCCc1ccccc1 .
2.65

* * *

# Experimental System: Solute carrier family 22 member 1 (Homo sapiens)
# Sequence (O15245 whole entry): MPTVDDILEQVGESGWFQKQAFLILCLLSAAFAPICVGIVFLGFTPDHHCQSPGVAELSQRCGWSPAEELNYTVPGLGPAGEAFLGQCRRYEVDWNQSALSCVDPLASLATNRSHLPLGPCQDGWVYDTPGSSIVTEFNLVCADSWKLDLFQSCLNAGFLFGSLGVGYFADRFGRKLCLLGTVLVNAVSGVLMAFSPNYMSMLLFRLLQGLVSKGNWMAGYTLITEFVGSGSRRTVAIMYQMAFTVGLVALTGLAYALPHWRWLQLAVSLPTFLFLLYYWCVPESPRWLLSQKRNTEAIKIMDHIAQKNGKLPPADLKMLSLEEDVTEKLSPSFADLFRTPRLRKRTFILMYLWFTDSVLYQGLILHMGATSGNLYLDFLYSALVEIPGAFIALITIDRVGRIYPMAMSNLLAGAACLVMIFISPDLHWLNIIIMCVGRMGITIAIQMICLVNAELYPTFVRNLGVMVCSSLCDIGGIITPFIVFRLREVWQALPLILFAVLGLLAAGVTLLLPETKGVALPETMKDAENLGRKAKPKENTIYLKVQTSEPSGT
# Measurement Notes: Cellular uptake in human HEK293 cells assessed as human OCT1-mediated drug transport at 2.5 uM after 4 mins by LC-MS/MS analysis
# Assay type: ADME, cell-based
# Condition Notes: hek293, 4 min
Dear colleague, classification is by Drug uptake, with ranges listed here: bucket A (below 600 pmol/mg), bucket B (600 pmol/mg to below 800 pmol/mg), bucket C (800 pmol/mg or more)

Which band does CN/C(=N/CCSCc1nc[nH]c1C)NC#N [CIMETIDINE] fall in?
bucket A

Which band does CC(C)(C)NCC(O)c1ccc(O)c(CO)c1 (stereo unspecified) [ALBUTEROL] fall in?
bucket A

Which band does NCCCOc1ccccc1-c1nc(C(N)=O)c(NC(N)=O)s1 fall in?
bucket B

Which band does CNS(=O)(=O)Cc1ccc2[nH]cc(CCN(C)C)c2c1 fall in?
bucket B

Which band does NC(=O)Nc1sc(-c2ccccc2O[C@H]2CCNC2)cc1C(N)=O fall in?
bucket C

Which band does O=C(NCCNCC(O)COc1ccc(O)cc1)N1CCOCC1 (stereo unspecified) [XAMOTEROL] fall in?
bucket A

Which band does N=C(N)NC(=O)c1nc(Cl)c(N)nc1N [AMILORIDE] fall in?
bucket C

Which band does N#Cc1ccc(OC2CCNC2)c(-c2cc(C(N)=O)c(NC(N)=O)s2)c1 (racemic) fall in?
bucket C

Which band does NC(=O)Nc1sc(-c2ccccc2OC2CNC2)cc1C(N)=O fall in?
bucket B

Which band does NC(=O)Nc1sc(-c2cccc(OC3CCNC3)c2)cc1C(N)=O (racemic) fall in?
bucket C

Which band does [H]/N=C(/N)N/C(=N/[H])NCCc1ccccc1 [PHENFORMIN] fall in?
bucket A

Which band does CC[N+](C)(CC)CCOC(=O)C(O)(c1ccccc1)C1CCCCC1 (stereo unspecified) [OXYPHENONIUM] fall in?
bucket B

Which band does NC(=O)Nc1sc(-c2ccc(OC3CCNC3)cc2)cc1C(N)=O (racemic) fall in?
bucket C

Which band does CN(C)C(=N)N=C(N)N [METFORMIN] fall in?
bucket A

Which band does CCC(NC(C)C)C(O)c1ccc(O)c2[nH]c(=O)ccc12 (stereo unspecified) [PROCATEROL] fall in?
bucket A

Which band does C[N+]1(C)CCC(Oc2ccccc2-c2cc(C(N)=O)c(NC(N)=O)s2)C1 (racemic) fall in?
bucket C
